Each recorded value in this set is attributed to patent US7045547B2.

Target: medium-chain acyl-CoA dehydrogenase (MC-CoA DH) (Sus scrofa, UniProt P41367)
Construct: medium-chain acyl-CoA dehydrogenase (MC-CoA DH) as purified from pig kidney; from tissue; host or cells: pig kidney
Sequence (P41367 26-421): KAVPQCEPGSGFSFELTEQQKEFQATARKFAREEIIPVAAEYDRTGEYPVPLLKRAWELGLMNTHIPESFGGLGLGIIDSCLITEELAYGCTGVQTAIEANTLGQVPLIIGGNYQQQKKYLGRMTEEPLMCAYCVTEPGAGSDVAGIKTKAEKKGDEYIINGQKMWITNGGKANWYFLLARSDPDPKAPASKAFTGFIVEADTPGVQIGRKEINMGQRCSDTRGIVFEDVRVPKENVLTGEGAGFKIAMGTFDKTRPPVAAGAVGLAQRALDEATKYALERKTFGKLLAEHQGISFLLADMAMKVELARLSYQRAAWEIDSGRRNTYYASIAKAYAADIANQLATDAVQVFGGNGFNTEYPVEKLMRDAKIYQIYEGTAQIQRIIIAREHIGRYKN
Assay: Kinetic stability of enzyme adducts (return of oxidized flavin absorbance at 446 nm)
Type: biochemical, pig
Conditions: 25° C.; 1.6 equivalents racemic 3,4-dienoyl-CoA (0.8 equivalent R-isomer); 9.5 μM enzyme, pH 7.6
Text: The reduced flavin adduct decomposes to the 2,4-conjugated diene with the return of the oxidized flavin absorbance spectrum. This isomerization provides a measure of the kinetic stability of each of the enzyme adducts formed. The dehydrogenase enzyme used in the stability testing of the inventive compounds was medium-chain acyl-CoA dehydrogenase (MC-CoA DH) as purified from pig kidney. […]
measure: rate constant of enzyme adduct decomposition (h⁻¹)

compound | unit_info | numeric_result
C=C=CCC(=O)SCCNC(=O)CCNC(=O)[C@H](O)C(C)(C)COP(=O)(O)OP(=O)(O)OC[C@H]1O[C@@H](n2cnc3c(N)ncnc32)[C@H](O)[C@@H]1OP(=O)(O)O [3,4-pentadienoyl-CoA, reference compound] | h⁻¹ | 1.6

I = CCCCCCCC=C=CCC(=O)SCCNC(=O)CCNC(=O)[C@H](O)C(C)(C)COP(=O)(O)OP(=O)(O)OC[C@H]1O[C@@H](n2cnc3c(N)ncnc32)[C@H](O)[C@@H]1OP(=O)(O)O (racemic) [3,4-dodecadienoyl-CoA]
II = CC=C=CCC(=O)SCCNC(=O)CCNC(=O)[C@H](O)C(C)(C)COP(=O)(O)OP(=O)(O)OC[C@H]1O[C@@H](n2cnc3c(N)ncnc32)[C@H](O)[C@@H]1OP(=O)(O)O (racemic) [3,4-hexadienoyl-CoA]
## Input Recorded rate constant of enzyme adduct decomposition values differ for I and II ; which one is higher? When you have decided, please share the label of that item.
## Output II

A = CCC=C=CCC(=O)SCCNC(=O)CCNC(=O)[C@H](O)C(C)(C)COP(=O)(O)OP(=O)(O)OC[C@H]1O[C@@H](n2cnc3c(N)ncnc32)[C@H](O)[C@@H]1OP(=O)(O)O (racemic) [3,4-heptadienoyl-CoA]
B = CCCC=C=CCC(=O)SCCNC(=O)CCNC(=O)[C@H](O)C(C)(C)COP(=O)(O)OP(=O)(O)OC[C@H]1O[C@@H](n2cnc3c(N)ncnc32)[C@H](O)[C@@H]1OP(=O)(O)O (racemic) [3,4-octadienoyl-CoA]
## Input Kindly compare A with B and tell me which has the lower rate constant of enzyme adduct decomposition figure. Use the label to indicate which entry you chose.
## Output B
